# target_system: T1, human CD73 (huCD73) protein, antigen of the Biacore assay (human, UniProt P21589 27-547, limits assumed)
# T1 construct: also called human CD73 antigen
# T1 sequence (looked up): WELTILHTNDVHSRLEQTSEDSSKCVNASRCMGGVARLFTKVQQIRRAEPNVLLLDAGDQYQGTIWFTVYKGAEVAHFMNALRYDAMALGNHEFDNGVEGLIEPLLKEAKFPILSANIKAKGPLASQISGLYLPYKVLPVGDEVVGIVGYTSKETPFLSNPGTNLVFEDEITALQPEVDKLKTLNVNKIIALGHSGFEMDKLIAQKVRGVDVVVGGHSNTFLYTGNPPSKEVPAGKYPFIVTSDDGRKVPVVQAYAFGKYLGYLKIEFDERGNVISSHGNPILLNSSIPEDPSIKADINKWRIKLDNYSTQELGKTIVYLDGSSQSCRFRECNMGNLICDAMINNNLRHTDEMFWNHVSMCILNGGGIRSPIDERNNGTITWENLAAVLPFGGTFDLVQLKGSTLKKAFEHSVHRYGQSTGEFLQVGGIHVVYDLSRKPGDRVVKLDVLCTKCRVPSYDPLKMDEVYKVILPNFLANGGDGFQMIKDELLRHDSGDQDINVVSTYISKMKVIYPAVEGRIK
# test_protocol: SPR Biacore T200; antibody captured on Protein A chip, CD73 in flow; 1:1 Langmuir
measure: pKd
# pKd is unitless: minus log10 of the molar concentration; print number only

Req: State the recorded pKd for this entry: Hab127.24 (antibody, V domains shown, VL2 + VH4; recombined with human heavy and light constant regions) VH: EVQLVQSGAEVKKPGASVKVSCKASGYTFTAYFMNWVMQAPGQSLEWIGRIYHNNGDTFYSQKFKGRATLTVDKSTSTVYMELRSLRSEDTAVYYCATSYVGDWGQGTTVTVSS VL: DIQMTQSPSSLSASVGDRVTITCRASQDIGDSLNWLQQKPGKAPKRLIYATSSLDSGVPSRFSGSGSGTEYTLTISSLQPEDFATYYCLQYASFPWTFGGGTKVEIK
Resp: 9.55

All values here come from patent US20220220218A1.
